# assayedSystem: human glucagon receptor (Homo sapiens)
# Construct: expressed in transfected cells; host or cells: BHK (baby hamster kidney) cells
# Sequence (P47871 26-477): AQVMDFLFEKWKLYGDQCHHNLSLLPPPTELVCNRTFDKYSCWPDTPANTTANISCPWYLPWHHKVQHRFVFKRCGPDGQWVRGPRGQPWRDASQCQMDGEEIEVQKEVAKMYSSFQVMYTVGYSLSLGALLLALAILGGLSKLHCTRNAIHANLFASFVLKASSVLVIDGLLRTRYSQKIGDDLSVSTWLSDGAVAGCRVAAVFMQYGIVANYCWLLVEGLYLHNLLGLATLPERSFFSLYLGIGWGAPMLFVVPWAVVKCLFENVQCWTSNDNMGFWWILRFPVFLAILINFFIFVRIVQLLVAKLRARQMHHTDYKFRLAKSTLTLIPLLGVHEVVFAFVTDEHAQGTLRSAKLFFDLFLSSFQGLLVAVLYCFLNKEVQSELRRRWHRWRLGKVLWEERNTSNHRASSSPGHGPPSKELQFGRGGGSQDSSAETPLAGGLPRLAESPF
# experimentDescription: Glucagon Binding Assay (III)
# conditionLabel: Glu Bd Assay (III) IC50 (nM), BHK cell membranes, WGA SPA beads, 125I-glucagon
Please respond with reported IC50 for every item in the list.
One number for each entry, in nM.

Example entries and their recorded answers appear below.
{"compound": "CC(C)(C)[C@H]1CC[C@H](N(Cc2ccc(C(=O)N3CCCC(C(=O)O)C3)cc2)C(=O)Nc2ccc(OC(F)(F)F)cc2)CC1 (relative stereo) [Example 94]", "unitSymbol": "nM", "reportedMeasurement": 1000}
{"compound": "CC(C)(C)[C@H]1CC[C@H](N(Cc2ccc(C(=O)NCCC(=O)O)cc2)C(=O)Nc2ccccc2)CC1 [Example 243]", "unitSymbol": "nM", "reportedMeasurement": 1090}
{"compound": "CC(C)(C)[C@H]1CC[C@H](N(Cc2ccc(C(=O)NCC(=O)O)cc2)C(=O)Nc2ccc(OC(F)(F)F)cc2)CC1 [Example 95]", "unitSymbol": "nM", "reportedMeasurement": 1700}

Switching to the query record.
## Task Returns the measured IC50 for the input compound. Input: CC(C)(C)C1CCC(N(Cc2ccc(C(=O)NCCC(=O)O)cc2)C(=O)Nc2ccc(C#N)cc2)CC1 (stereo not shown) [Example 99]
## Result 1050
